- Target of assay: CYP3A4 (Homo sapiens, UniProt P08684)
- Sequence (P08684 2-503): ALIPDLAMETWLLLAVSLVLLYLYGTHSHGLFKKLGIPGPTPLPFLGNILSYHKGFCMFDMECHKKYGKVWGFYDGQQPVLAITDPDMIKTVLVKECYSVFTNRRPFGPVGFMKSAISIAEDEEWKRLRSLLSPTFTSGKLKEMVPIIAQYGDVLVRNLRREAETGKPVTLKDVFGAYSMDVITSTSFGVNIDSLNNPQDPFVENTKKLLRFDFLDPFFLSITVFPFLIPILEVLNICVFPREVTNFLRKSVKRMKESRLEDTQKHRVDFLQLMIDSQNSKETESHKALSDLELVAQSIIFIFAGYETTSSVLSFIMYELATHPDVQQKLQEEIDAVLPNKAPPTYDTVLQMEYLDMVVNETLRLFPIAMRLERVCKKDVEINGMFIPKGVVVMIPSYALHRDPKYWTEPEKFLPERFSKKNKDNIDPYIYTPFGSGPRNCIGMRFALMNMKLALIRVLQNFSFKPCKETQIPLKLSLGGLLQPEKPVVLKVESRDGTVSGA
Reported metric: IC50 (nM)

[P] C[C@H](c1ccc(F)cc1)n1cncc1C1CC12CCN(S(=O)(=O)c1cnc(N3CCN(C)CC3)s1)CC2 (single isomer, unassigned) [Compound 43a]
[Q] C[C@H](c1ccc(F)cc1)n1cncc1CN1CCN(S(=O)(=O)c2cnc(N3CCN4C[C@H](O)CC[C@H]4C3)s2)CC1
[R] C[C@H](c1ccc(F)cc1)n1cncc1CN1CCN(S(=O)(=O)c2cnc(N3CCN(C)CC3)s2)CC1
## Task Re-order the entries listed above so their IC50 values fall from first to last. Hello, could you send the labels back in the order asked? Thank you.
## Result P, Q, R

* * *

- Target of assay: human CYP11B1 (Homo sapiens)
- Construct: expressed in transfected cells
- Sequence (P15538 25-503): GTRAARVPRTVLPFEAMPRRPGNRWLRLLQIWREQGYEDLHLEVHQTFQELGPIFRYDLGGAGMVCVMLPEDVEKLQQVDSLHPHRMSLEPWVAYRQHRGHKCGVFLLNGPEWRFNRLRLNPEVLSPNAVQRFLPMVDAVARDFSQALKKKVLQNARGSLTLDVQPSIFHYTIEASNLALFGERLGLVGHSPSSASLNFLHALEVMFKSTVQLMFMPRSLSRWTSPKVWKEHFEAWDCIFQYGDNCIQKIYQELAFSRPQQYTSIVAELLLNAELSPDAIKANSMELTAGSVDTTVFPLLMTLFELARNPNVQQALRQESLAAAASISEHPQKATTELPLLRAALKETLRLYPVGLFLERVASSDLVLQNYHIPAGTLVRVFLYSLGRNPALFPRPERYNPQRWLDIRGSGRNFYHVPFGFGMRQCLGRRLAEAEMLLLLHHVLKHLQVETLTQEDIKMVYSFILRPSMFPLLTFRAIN
- Procedure text: IC50 vs CYP11B1 by cortisol synthesis in V79 cells (HTRF)
- Format: cell-based
- Particulars: V79 cells expressing human CYP11B1, 1500 nM RSS, test conc. 0.5-10000 nM, unit inferred
pIC50: −log10 of the molar value.
Reported metric: pIC50

> print(dat)
                                   compound               target.of.assay  measurement
1  COCC(c1cncn1[C@H](C)c1ccc(F)cc1)N1CCN(S(=O)(=O)c2cnc(N3CCN(C)CC3)s2)CC1 (single isomer, unassigned)  human CYP11B1 (Homo sapiens)         5.66

[1] COCCC(c1cncn1[C@H](C)c1ccc(F)cc1)N1CCN(S(=O)(=O)c2cnc(N3CCN(C)CC3)s2)CC1 (single isomer, unassigned)
[2] C[C@H](c1ccc(F)cc1)n1cncc1C1CCCC2CN(S(=O)(=O)c3cnc(Nc4ccccn4)s3)CCN21 (single isomer, unassigned)
## Task Lab log: flag the item ( 1 or 2 ) with the smaller pIC50 figure. Write down the label attached to your selection.
## Result 2
(2: 5.67, 1: 5.87)

* * *

- Target of assay: CYP2D6 (Homo sapiens)
- Construct: 0.1 mg/mL protein human liver microsomes (BD Gentest); tissue BD Gentest; host or cells: human liver microsomes
- Sequence (P10635 whole entry): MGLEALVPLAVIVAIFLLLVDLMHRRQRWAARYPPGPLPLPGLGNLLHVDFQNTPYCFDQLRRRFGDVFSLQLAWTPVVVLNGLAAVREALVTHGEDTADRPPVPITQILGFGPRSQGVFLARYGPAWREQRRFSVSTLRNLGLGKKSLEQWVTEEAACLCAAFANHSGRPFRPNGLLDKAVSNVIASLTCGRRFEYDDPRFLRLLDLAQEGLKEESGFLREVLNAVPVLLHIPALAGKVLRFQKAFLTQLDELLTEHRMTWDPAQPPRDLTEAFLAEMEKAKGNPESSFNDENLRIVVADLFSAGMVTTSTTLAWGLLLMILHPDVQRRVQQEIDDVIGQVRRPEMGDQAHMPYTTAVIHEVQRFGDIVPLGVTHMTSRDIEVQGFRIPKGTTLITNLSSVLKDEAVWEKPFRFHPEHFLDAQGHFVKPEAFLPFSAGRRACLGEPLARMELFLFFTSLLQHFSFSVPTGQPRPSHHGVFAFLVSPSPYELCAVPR
- Procedure text: Cocktail CYP inhibition assay in human liver microsomes, dextromethorphan O-demethylation
- Format: in vitro ADME
- Particulars: human liver microsomes 0.1 mg/mL, 5 μM dextromethorphan, 10 min 37° C.; unit inferred
Reported metric: pIC50
API: returns pIC50 as number; meaning -log10 of concentration in mol/L.

// COCC(c1cncn1[C@H](C)c1ccc(F)cc1)N1CCN(S(=O)(=O)c2cnc(N3CCN(C)CC3)s2)CC1 (single isomer, unassigned) : pIC50 value = 5.05

* * *

- Target of assay: CYP3A4 (Homo sapiens)
- Construct: 0.01 mg/mL protein human liver microsomes (BD Gentest); tissue BD Gentest; host or cells: human liver microsomes
- Procedure text: IC50 vs CYP3A by inhibition of lopinavir metabolism in human liver microsomes
- Type: biochemical
- Particulars: human liver microsomes 0.01 mg/mL, 1.5 μM lopinavir, 8 min 37° C.; test conc. e.g. 0.098-100 nM; unit inferred; read-out: 3A4(LPV)
Reported metric: IC50 (nM)

> print(dat)
                                   molecule  unit.label  measurement
1  C[C@H](c1ccc(F)cc1)n1cncc1CN1CCN(S(=O)(=O)c2cnc(N3CCC(S(C)(=O)=O)C3)s2)CC1 (stereo partly shown)          nM          1.7
2  CC1CN(c2ncc(S(=O)(=O)N3CCN(Cc4cncn4[C@H](C)c4ccc(F)cc4)CC3)s2)C[C@@H]2C[C@@H](O)CN12 (stereo partly shown)          nM          1.6
3  C[C@H](c1ccc(F)cc1)n1cncc1CN1CCN(S(=O)(=O)c2cnc(NCC(F)CN)s2)CC1 (stereo partly shown)          nM          1.7

* * *

pIC50: −log10 of the molar value.
Please consider the recorded pIC50 for UniProt:P08684 in what follows.
Reported metric: pIC50

> print(dat)
                                   compound  measurement
1  C[C@H](c1ccc(F)cc1)n1cncc1CN1CCN(S(=O)(=O)c2cnc(N3CC(=O)N4C[C@H](O)C[C@H]4C3)s2)CC1 [Compound 16]         8.28
2  C[C@H](c1ccc(F)cc1)n1cncc1CN1CCN(S(=O)(=O)c2cnc(N3CCNCC3)cn2)CC1 [Compound 30]         8.44
3  C[C@H](c1ccc(F)cc1)n1cncc1CN1CCN(S(=O)(=O)c2cnc(N3CCN4C[C@H](O)C[C@H]4C3)s2)CC1 [Compound 5]         8.42

[A] C[C@H](c1ccc(F)cc1)n1cncc1CN1CCN(S(=O)(=O)c2cncc(N3CCNCC3)c2)CC1 [Compound 29]
[B] C[C@H](c1ccc(F)cc1)n1cncc1C1C(=O)OCC2CN(S(=O)(=O)c3cnc(Nc4ccc(C(F)(F)F)cn4)s3)CCN21 (stereo partly shown) [Compound 39]
[C] C[C@H](c1ccc(F)cc1)n1cncc1CC1(CO)CCN(S(=O)(=O)c2cnc(N3CCN(C)CC3)s2)CC1 [Compound 47]
## Task Could you please order the items by pIC50, going from the lowest number to the highest? Order the labels as requested and list them.
## Result C, B, A

* * *

pIC50: −log10 of the molar value.
Values of pIC50 reported for CYP1A2 (Homo sapiens, UniProt P05177) appear below.

As a guide, the following entries are already answered.
> print(dat)
                                   molecule  reported.metric  measurement
1  COCC(c1cncn1[C@H](C)c1ccc(F)cc1)N1CCN(S(=O)(=O)c2cnc(N3CCN(C)CC3)s2)CC1 (single isomer, unassigned)            pIC50       < 5.00
2  C[C@H](c1ccc(F)cc1)n1cncc1C1CCCC2CN(S(=O)(=O)c3cnc(Nc4ccccn4)s3)CCN21 (single isomer, unassigned)            pIC50       < 5.00

Reported CYP1A2 (Homo sapiens, UniProt P05177) pIC50 for item COCCC(c1cncn1[C@H](C)c1ccc(F)cc1)N1CCN(S(=O)(=O)c2cnc(N3CCN(C)CC3)s2)CC1 (single isomer, unassigned) was < 5.00

* * *

- Target of assay: human CYP11B2 (Homo sapiens)
- Sequence (P19099 25-503): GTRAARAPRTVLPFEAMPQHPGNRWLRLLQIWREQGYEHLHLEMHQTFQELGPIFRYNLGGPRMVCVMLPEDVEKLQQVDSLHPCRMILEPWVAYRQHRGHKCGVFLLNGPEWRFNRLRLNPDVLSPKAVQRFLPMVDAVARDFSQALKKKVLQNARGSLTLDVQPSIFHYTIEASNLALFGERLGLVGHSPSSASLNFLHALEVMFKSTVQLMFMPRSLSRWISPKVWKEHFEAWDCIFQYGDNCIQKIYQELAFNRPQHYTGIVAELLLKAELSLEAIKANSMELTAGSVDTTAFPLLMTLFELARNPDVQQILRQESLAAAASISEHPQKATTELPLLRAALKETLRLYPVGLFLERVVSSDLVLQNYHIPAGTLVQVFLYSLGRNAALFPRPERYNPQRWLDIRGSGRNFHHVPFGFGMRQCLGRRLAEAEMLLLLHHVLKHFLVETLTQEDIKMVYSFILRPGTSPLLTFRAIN
- Procedure text: IC50 vs CYP11B2 by aldosterone synthesis in V79 cells (HTRF)
- Particulars: V79 cells expressing human CYP11B2, 750 nM DOC, test conc. 0.5-10000 nM, unit inferred
pIC50: −log10 of the molar value.
Reported metric: pIC50

> print(dat)
                                   compound               target.of.assay  measurement
1  COCCC(c1cncn1[C@H](C)c1ccc(F)cc1)N1CCN(S(=O)(=O)c2cnc(N3CCN(C)CC3)s2)CC1 (single isomer, unassigned)  human CYP11B2 (Homo sapiens)         5.42

[a] C[C@H](c1ccc(F)cc1)n1cncc1CN1CCN(S(=O)(=O)c2cnc(N3CCC(S(C)(=O)=O)C3)s2)CC1 (stereo partly shown)
[b] C[C@H](c1ccc(F)cc1)n1cncc1C1CCCC2CN(S(=O)(=O)c3cnc(Nc4ccccn4)s3)CCN21 (single isomer, unassigned)
[c] COCC(c1cncn1[C@H](C)c1ccc(F)cc1)N1CCN(S(=O)(=O)c2cnc(N3CCN(C)CC3)s2)CC1 (single isomer, unassigned)
## Task Rank order required: pIC50, descending. In your reply, arrange the labels in the requested order.
## Result b, c, a
(b: 5.88, c: 5.30, a: 4.79)

* * *

- Target of assay: CYP3A4 (Homo sapiens, UniProt P08684)
Reported metric: IC50 (nM)

Answered examples (5):
> print(dat)
                                   compound  measurement
1  C[C@H](c1ccc(F)cc1)n1cncc1CN1CCN(S(=O)(=O)c2cnc(N3CCNCC3)s2)CC1          1.4
2  C[C@H](c1ccc(F)cc1)n1cncc1C1COCC2CN(S(=O)(=O)c3cnc(Nc4ccccn4)s3)CCN21 (stereo partly shown)          0.8
3  C[C@H](c1ccc(F)cc1)n1cncc1CN1CCN(S(=O)(=O)c2cnc(N3CCN4C[C@H](O)CC4(C)C3)s2)CC1 (stereo partly shown)          1.9
4  C[C@H](c1ccc(F)cc1)n1cncc1CN1CCN(S(=O)(=O)c2cnc(N3CCN4C[C@H](O)C[C@@H]4C3)s2)CC1          1.4
5  C[C@H](c1ccc(F)cc1)n1cncc1CN1CCN(S(=O)(=O)c2cnc(N3CCN(C4CCN(C)CC4)CC3)s2)CC1          2.8

[a] C[C@H](c1ccc(F)cc1)n1cncc1CC1(C#N)CCN(S(=O)(=O)c2cnc(N3CCN(C)CC3)s2)CC1
[b] C[C@H](c1ccc(F)cc1)n1cnnc1CN1CCN(S(=O)(=O)c2cnc(N3CCN4C[C@H](O)C[C@H]4C3)s2)CC1
## Task Rank a against b by their IC50 values and give the higher one. Write down the label attached to your selection.
## Result b
(b: 32 nM, a: 9.4 nM)
